Experiment: V-ATPase proton transport modulators in yeast, dose response, S. cerevisiae, pHLuorin, powder set 4 (AID 652071)
Conditions: S. cerevisiae pHLuorin cytosolic pH fluorescence; series mostly up to 100 µM
Active and inactive are the calls of the source. How the calls were made is not given here.
MEASURE: outcome

Worked cases, outcome given:
CPD SMILES: O=C(Nc1ccccc1N1CCCCC1)c1cccc(Cl)n1
outcome: inactive
--
CPD SMILES: O=C(Nc1ccccc1N1CCCCC1)c1ccc(C(F)(F)F)o1
outcome: inactive
--
CPD SMILES: CC(=O)N1CCN(c2ccccc2NC(=O)c2cccc(Br)n2)CC1
outcome: inactive
--
CPD SMILES: CN1CCN(c2ccccc2NC(=O)c2occc2-c2ccccc2)CC1
outcome: inactive
--
CPD SMILES: CN(C)C(=O)c1cccc(C(=O)Nc2ccccc2N2CCCCC2)c1
outcome: inactive
--
CPD SMILES: O=C(Nc1ccccc1N1CCCCC1)c1cc(Cl)ccn1
outcome: inactive
--
CPD SMILES: CC(=O)N1CCN(c2ccccc2NC(=O)c2occc2-c2ccccc2)CC1
outcome: inactive
--
CPD SMILES: O=C(Nc1ccccc1N1CCCCC1)c1cccc(Br)n1
outcome: inactive

For every item in the list below, what is its measured outcome?
1. O=C(Nc1ccccc1N1CCOCC1)c1ccc(Cl)o1
2. CN1CCN(c2ccccc2NC(=O)c2ccc(C(N)=O)o2)CC1
3. NC(=O)c1cccc(C(=O)Nc2ccccc2N2CCCCC2)c1
4. CN1CCN(c2ccccc2NC(=O)c2cc(C#N)ccn2)CC1

## Result
1: inactive; 2: inactive; 3: inactive; 4: inactive

Report outcome for every entry below.
1. COCc1ccc(C(=O)Nc2ccccc2N2CCN(C)CC2)o1
2. CN1CCN(c2ccccc2NC(=O)c2cccc(S(C)(=O)=O)c2)CC1
3. CN1CCN(c2ccccc2NC(=O)c2ccc(S(C)(=O)=O)o2)CC1
4. CC(=O)N1CCN(c2ccccc2NC(=O)c2cccc(C(F)(F)F)n2)CC1
5. COCc1ccc(C(=O)Nc2ccccc2N2CCN(C(C)=O)CC2)o1
6. CC(=O)N1CCN(c2ccccc2NC(=O)c2cccc(CS(C)(=O)=O)c2)CC1

## Result
inactive
inactive
inactive
inactive
inactive
inactive

For each of the items listed, what is its outcome?
1. CC(C)(C)c1ccc(C(=O)Nc2ccccc2N2CCCCC2)o1
2. CC(=O)N1CCN(c2ccccc2NC(=O)c2cccc(S(=O)(=O)N(C)C)c2)CC1
3. CC(=O)N1CCN(c2ccccc2NC(=O)c2cccc(CC#N)c2)CC1
4. CC(=O)N1CCN(c2ccccc2NC(=O)c2ccc(-c3ccccc3)o2)CC1
5. CN1CCN(c2ccccc2NC(=O)c2cncc(N)n2)CC1

## Result
inactive
inactive
inactive
inactive
inactive
